Assay: protein stability index of a GFP-peptide fusion (yeast GPS) (PSI 1-4); higher = more stable; sorted into four equal gates, so the index is relative within each strain
Conditions: doa10∆
Please go through the items and note down their protein stability index.

q: Form field: reported protein stability index of EEQLDLLSAILDPSKSK [MED11]
a: 3.09

q: Next sequence: SVKLDLQDDEDHKFPIR [BRN1]
a: 2.99

q: Another sequence: SDIISMLQISDDNEMTR [RRI2]
a: 3.05

q: Similarly, GVERLIPVGDNTVVGIS [PRE4] ?
a: 2.96

q: Repeat with LLEQDTSTEKLYKLNDK [PRE9]
a: 2.99

q: And then PRVQGFYVPQARNVTFD [GRR1] , what is it?
a: 2.99

q: Also SNSVFSPDGRNFQVEYA [PRE10] , if possible.
a: 3.04

q: Same read-out for KEEISDQKPIEHIKEGS [SWI3] ?
a: 2.96

q: # iterate: SSVVSEPKKPSFTFASS [YOR098C/NUP1]
a: 3

q: Try this sequence too: TYNEDIPVEILVRRLSD [PRE9]
a: 3.06

q: Input SVPIWVDTSTELESMLE [RRP6]
a: 3.07

q: And for NRAARDRRAQRVAEKRD [RPL19A] ?
a: 2.94

q: Please give the result for KREESESAAVYNGRGAR [SNF2] too.
a: 3.09

These data points were gathered from the supplement of paper PMC9732359.
